# TESTED ON: [^3 H]-PAF binding, platelet membrane (Oryctolagus cuniculus)
# Sequence (G1TEI7 1-342): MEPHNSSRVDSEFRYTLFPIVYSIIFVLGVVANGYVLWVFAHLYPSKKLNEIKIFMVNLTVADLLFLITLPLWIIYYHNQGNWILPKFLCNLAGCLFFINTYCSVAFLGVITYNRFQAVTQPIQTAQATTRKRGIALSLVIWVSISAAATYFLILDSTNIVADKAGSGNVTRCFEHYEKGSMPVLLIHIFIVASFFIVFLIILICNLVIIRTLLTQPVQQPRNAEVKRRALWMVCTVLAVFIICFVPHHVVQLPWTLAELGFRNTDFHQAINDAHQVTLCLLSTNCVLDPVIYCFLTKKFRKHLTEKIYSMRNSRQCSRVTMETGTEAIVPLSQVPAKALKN
RECORDED ENDPOINT: pIC50
// returns pIC50 (minus log10 of molar concentration), number only

Query block: Find the recorded pIC50 belonging to CCCCCCCCCC1(C)OCC(COC(=O)CCCCC[n+]2ccccc2)O1 (stereo not shown) [Example 14] and report it.
Result block: 6.21

Taken from patent US4921865A.
